# test-system: T1, BSA-Compound 1 (human CCR4 extracellular region peptide Compound 1 conjugated with BSA) (human, also: conjugated to BSA through SMCC, site not given here)
# T1 construct: the claims speak of positions 13 to 29; ELISA antigen; also called CCR4 partial peptide
# T1 peptide: DESIYSNYYLYESIPKPC
# experiment-notes: ELISA on BSA-Compound 1, COS-7 culture supernatant
Ends that are not written are not given here.
measured-attribute: binding result

binder: anti-CCR4 CDR-grafted antibody HV2LV3 (antibody, human IgG1, V domains shown, Tested as COS-7 culture supernatant only; also called pKM2160HV2LV3) VH: EVQLVESGGGLVQPGGSLRLSCAASGFTFSNYGMSWVRQAPGKGLEWVSTISSASTYSYYPDSVKGRFTISRDNSKNTLYLQMNSLRAEDTAVYYCGRHSDGNFAFGYWGQGTLVTVSS VL: DVLMTQSPLSLPVTPGEPASISCRSSRNIVHINGDTYLEWYLQKPGQSPQLLIYKVSNRFSGVPDRFSGSGSGTDFTLKISRVEAEDVGVYYCFQGSLLPWTFGQGTKVEIK
measured-attribute: binding result
value-measured: binds
//
binder: anti-CCR4 CDR-grafted antibody Ga13LV3 (antibody, human IgG1, V domains shown, Tested as COS-7 supernatant and as purified antibody from YB2/0; also called pKM2160Ga13LV3) VH: EVQLVESGGDLVQPGRSLRLSCAASGFIFSNYGMSWVRQAPDKRLEWVATISSASTYSYYPDSVKGRFTISRDNAKNSLYLQMNSLRVEDTALYYCGRHSDGNFAFGYWGQGTLVTVSS VL: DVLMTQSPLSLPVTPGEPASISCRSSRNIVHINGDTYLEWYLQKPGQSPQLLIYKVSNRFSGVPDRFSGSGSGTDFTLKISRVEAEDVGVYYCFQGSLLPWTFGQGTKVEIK
measured-attribute: binding result
value-measured: binds
